Assay: Antiproliferative activity against human MRC5 cells incubated for 72 hrs by MTT assay
Assay type: toxicity, cell-based
IC50 at 72 h under 10 µM gets y, anything at or over 10 µM gets n.

Worked examples, 2 compounds total:
>  <COMPOUND>
O=C(CCSSc1ccccc1/C=N/NC(=O)c1ccccc1)OC[C@H]1OC(O)[C@H](O)[C@@H](O)[C@@H]1O (stereo not given in full)

>  <GROUP>
n

$$$$
>  <COMPOUND>
O=C(CCSSc1ccccc1/C=N/NC(=O)c1ccccc1)OC[C@H]1OC(O)C[C@@H](O)[C@@H]1O (stereo not given in full)

>  <GROUP>
n

$$$$

*Q* Consider the compound COC(=O)CCSSc1ccccc1/C=N/NC(=O)c1ccccc1 . Is its IC50 at 72 h strictly less than 10 µM?
*A* n

*Q* Consider the compound CC(=O)N(O)CCCCCNC(=O)CCC(=O)N(O)CCCCCNC(=O)CCC(=O)N(O)CCCCCN . Is its IC50 at 72 h strictly less than 10 µM?
*A* y

*Q* Consider the compound O=C(CCSSc1ccccc1/C=N/NC(=O)c1ccccc1)N[C@H]1C(O)O[C@H](CO)[C@@H](O)[C@@H]1O (stereo not given in full) . Is its IC50 at 72 h strictly less than 10 µM?
*A* n
